Overview of recorded composite z-score for various compounds
- Measurement target: Torsin-1A-interacting protein 1 (Homo sapiens)
- Protocol details: compound microarray binding of lysate hLAP1 – cell lysate, small-molecule microarray, COS7 lysate, 635/667 nm fluorescence, primary screen (AID 1116)
- Condition notes: 635 nm fluorescence, higher = more signal
Endpoint: composite z-score

# Compound, Recorded value
data = [
    ("CC(C)C(CO)N1C(=O)[C@@H]2C3C(=O)OCCC/C=C\\[C@H]3OC23C=CCN(Cc2ccccc2)C(=O)[C@@H]13 (some centres undefined)", 1.14),
    ("CC(C)NC(=O)[C@@H]1c2ccccc2C(=O)N(Cc2ccc(OC(F)(F)F)cc2)[C@H]1c1ccc(CO)cc1", 0.673),
    ("C=CCOC(=O)[C@H]1[C@@H]2C(=O)O[C@@H](c3ccccc3)[C@@H](c3ccccc3)N2[C@@H](c2ccc(OCCOC(=O)[C@@H]3C[C@@H]4C(=O)N[C@@H](CCCCNC(C)=O)C(=O)N4[C@@H]3c3cccc(OCCO)c3)cc2)[C@]12C(=O)Nc1ccccc12", 0.439),
    ("COC(=O)c1cccc([C@H]2OC(=CC(=O)OC(C)C)C[C@@H](c3cccc(C(=O)OC)c3)O2)c1", 3.27),
]

###

Overview of recorded z-score for various compounds
- Protocol details: plasmodial surface anion channel blockers, osmotic lysis – cell-based, P. falciparum Indochina, OD700, 1 h, primary screen (AID 1154)
- Condition notes: P. falciparum Indochina infected RBC osmotic lysis, higher = more signal, called active from +8 up or from −8 down

# Compound, z-score
rows = [
    ("C[C@]1(C(=O)O)c2ccccc2C(=O)N(Cc2cc(F)cc(C(F)(F)F)c2)[C@H]1c1ccc(CO)cc1", 2.63),
    ("O=C1C[C@@](C(=O)NCc2ccccc2)(c2ccc([N+](=O)[O-])cc2)[C@@H](c2ccc(CO)cc2)N1C1CCCCC1", 0.661),
    ("CCOC(=O)C[C@H]1[C@H](OC(=O)Cc2ccc3c(c2)OCO3)[C@@H](NC(=O)Cc2ccc(OC)cc2)c2cc(OCCCO)ccc2N1C(=O)Cc1ccc(OC)cc1", 10.7),
    ("O=C(N1CCOCC1)[C@@]1(Cc2ccccc2)COC(c2ccc(OCCCO)cc2)=N1", 12),
    ("COc1ccc([Si](C)(C)[C@@H]2[C@@H](CC(=O)N3Cc4ccccc4C[C@H]3CO)O[C@]3(C(=O)N(Cc4cccc(N5CCOC5=O)c4)c4ccccc43)[C@H]2C)cc1", 5.29),
    ("COc1ccc(C(O)C2C=CC3C(=O)N(c4ccccc4)C(=O)C3N2Nc2ccc([N+](=O)[O-])cc2)c2ccccc12 (configuration not stated)", 9.23),
    ("CCOC(=O)C1=CC[C@@H](c2ccccc2)N(S(=O)(=O)c2ccc(C)cc2)[C@H]1c1ccccc1I", 1.18),
]

###

Overview of recorded composite z-score for various molecules
- Protocol details: probe aNOTCH2 binding on compound microarray – biochemical, small-molecule microarray, 635/667 nm fluorescence, primary screen (AID 1121);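 also: score merges feature fluorescence read at 667 nm with its signal to noise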
- Condition notes: higher = more signal

# Molecule, composite z-score
data = [
    ("COCCOC(=O)N1C(=O)[C@@]2(c3cc(C#CCCO)ccc31)[C@H](c1ccccc1OCCO)N1[C@H](c3ccccc3)[C@H](c3ccccc3)OC(=O)[C@H]1[C@@H]2C(N)=O", -0.118),
    ("CC(C)=CCCC(C)=CC(O)C1C=CC2C(=O)NC(=O)C2N1Nc1ccc(Cl)cc1Cl (stereo not given)", -0.0464),
    ("COc1ccc(NN2C(C(O)c3ccc(I)cc3)C=CC3C(=O)N(C4CCCCC4)C(=O)C32)cc1 (stereo not given)", -0.075),
    ("COC(=O)C[C@H]1O[C@@]2(C[C@@H]1[Si](C)(C)C)C(=O)N(C)c1ccccc12", -0.111),
    ("N#Cc1ccc(NN2C(C(O)C3CC=CCC3)C=CC3C(=O)N(c4ccccc4)C(=O)C32)cc1 (stereo not given)", -0.0037),
    ("Cc1ccc(S[C@]2(C(=O)NCCCN(C)C)CC(=O)N(C3Cc4ccccc4C3)[C@@H]2c2ccc(CO)cc2I)cc1", -0.18),
    ("COc1cc(C(O)C2C=CC3C(=O)N(c4ccccc4)C(=O)C3N2Nc2ccccc2F)cc(OC)c1OC (stereo not given)", 0.0409),
    ("C=C(CCCC)/C(=C/C[C@H](OC(=O)c1ccncc1)c1ccc(OCCO)cc1)c1cnc2ccccc2c1", -0.0891),
    ("COc1ccc([Si](C)(C)[C@@H]2[C@@H](CC(=O)N(CCO)Cc3ccccc3)O[C@]3(C(=O)N(Cc4ccc(N5C(=O)c6cccc7cccc5c67)cc4)c4ccccc43)[C@H]2C)cc1", -0.126),
    ("NCCCCCCNC(=O)[C@@H]1C[C@@H]2C(=O)N3CCC[C@H]3C(=O)N2[C@@H]1c1cccc(OCCO)c1", -0.15),
    ("CC(C)=CCCC(C)=CC(O)C1C=CC2C(=O)NC(=O)C2N1Nc1ccccn1 (stereo not given)", 0.0047),
    ("C=CCNC(=O)[C@H]1[C@@H]2C(=O)O[C@@H](c3ccccc3)[C@@H](c3ccccc3)N2[C@@H](c2ccc(OCCO)cc2)[C@]12C(=O)Nc1ccc(C#CC3(O)CCCCCC3)cc12", 0.0111),
    ("CC[C@@H]1C=C(C(=O)O)[C@H](c2ccc(OC)cc2)N1S(=O)(=O)c1ccc(C)cc1", -0.173),
    ("O=C1C[C@]2(c3ccc([N+](=O)[O-])cc3)C(=O)N(C3CC3)c3cc(CO)ccc3[C@H]2N1C1CCCCC1", -0.172),
    ("O=C1O[C@@H](c2ccccc2)[C@@H](c2ccccc2)N2[C@@H](c3ccc(OCCO)cc3)[C@]3(C(=O)Nc4ccc(C#CCCO)cc43)[C@@H](C(=O)O)[C@H]12", 0.516),
]
